The measured values listed here are drawn from ChEMBL document CHEMBL4011603.

system: Streptococcus pneumoniae; assay: Antibacterial activity against Streptococcus pneumoniae ATCC 4961 by broth microdilution method; format: functional
assay metric: MIC

CC[C@H]1OC(=O)[C@H](C)C(=O)[C@H](C)[C@@H](O[C@@H]2O[C@H](C)C[C@H](N(C)C)[C@H]2OC(C)=O)[C@](C)(OC)C[C@@H](C)C(=O)[C@H](CNCc2ccccc2)[C@H]2NC(=O)O[C@@]21C
< 0.007 mg/L
CC[C@H]1OC(=O)[C@H](C)C(=O)[C@H](C)[C@@H](O[C@@H]2O[C@H](C)C[C@H](N(C)C)[C@H]2OC(C)=O)[C@](C)(OC)C[C@@H](C)C(=O)[C@]2(CC=NN2)[C@H]2NC(=O)O[C@]12C
0.06 mg/L
CCOC(=O)C(C[C@H]1C(=O)[C@H](C)C[C@@](C)(OC)[C@H](O[C@@H]2O[C@H](C)C[C@H](N(C)C)[C@H]2OC(C)=O)[C@@H](C)C(=O)[C@@H](C)C(=O)O[C@H](CC)[C@@]2(C)OC(=O)N[C@H]12)C(=O)OCC
0.06 mg/L

Data request: Find the recorded MIC belonging to `CC[C@H]1OC(=O)[C@H](C)C(=O)[C@H](C)[C@@H](O[C@@H]2O[C@H](C)C[C@H](N(C)C)[C@H]2OC(C)=O)[C@](C)(OC)C[C@@H](C)C(=O)[C@H](CNCc2cccnc2)[C@H]2NC(=O)O[C@@]21C` and report it.
Data returned: 0.015 mg/L

Data request: Name the recorded MIC for `CC[C@H]1OC(=O)[C@H](C)[C@@H](O)[C@H](C)[C@@H](O[C@@H]2O[C@H](C)C[C@H](N(C)C)[C@H]2OC(C)=O)[C@](C)(OC)C[C@@H](C)C(=O)/C(Cc2ccccc2)=C/[C@]1(C)O` .
Data returned: 0.25 mg/L

Data request: Fill in: MIC of `CC[C@H]1OC(=O)[C@H](C)C(=O)[C@H](C)[C@@H](O[C@@H]2O[C@H](C)C[C@H](N(C)C)[C@H]2O)[C@](C)(OC)C[C@@H](C)C(=O)[C@H](CNCc2ccccc2)[C@H]2N(C)C(=O)O[C@]12C` is ___
Data returned: 0.25 mg/L

Data request: What does the data say about its MIC? Entry: `C=C1C(=O)[C@H](C)C[C@@](C)(OC)[C@H](O[C@@H]2O[C@H](C)C[C@H](N(C)C)[C@H]2OC(C)=O)[C@@H](C)C(=O)[C@@H](C)C(=O)O[C@H](CC)[C@@]2(C)OC(=O)N[C@H]12`
Data returned: 1 mg/L

Data request: Query: MIC; subject: `CC[C@H]1OC(=O)[C@H](C)[C@@H](O[C@H]2C[C@@](C)(OC)[C@@H](O)[C@H](C)O2)[C@H](C)[C@@H](O[C@@H]2O[C@H](C)C[C@H](N(C)C)[C@H]2O)[C@](C)(OC)C[C@@H](C)C(=O)[C@H](C)[C@@H](O)[C@]1(C)O`
Data returned: 0.015 mg/L

Data request: Would you mind telling me what MIC value was observed for `C=C1C(=O)[C@H](C)C[C@@](C)(OC)[C@H](O[C@@H]2O[C@H](C)C[C@H](N(C)C)[C@H]2OC(C)=O)[C@@H](C)C(=O)[C@@H](C)C(=O)O[C@H](CC)[C@@]2(C)OC(=O)N(Cc3ccccc3)[C@H]12` ?
Data returned: < 0.07 mg/L
